Measured values drawn from the supplement of paper PMC12764529 for this set.

assay-summary: folding stability dG unfold (combined trypsin and chymotrypsin); higher = more stable
Everything with folding stability dG unfold lower than 1 kcal/mol is label 0; everything else, including exactly 1 kcal/mol, is label 1.

Example results:
item-sequence	discrete-label
SAGGSAGGSAGGGTVTLEIELKVKPGEKIKDLATGEEFEVKEGETVRIRITLPLPPAPEESAGGSAGGSAGG [r7_234_TrROS_Hall]	label 1
SAGGSAGGSAGMTLEELAAADPDAVVPVKVPGTDTDVDVTVEPGAVRFTFPDGTTATVPASAGGSAGGSAGG [r17_128_JUSTAS]	label 0
SAGFQIERKRDPDGKYEVEIKFPHPDGHPMRVKIPINPKEGKIKIDEIESTNPGHKQRMEELARWFLKASAG [r5_266_TrROS]	label 0

stdin: Tell me whether folding stability dG unfold is at least 1 kcal/mol here: SAGGSAMTTIVKTEPPTLDEEGNPYIRLTIKFPNGGTTTITLAPSELPQYLADLPPGFEVEEINPLSAGGSA [r15_339_JUSTAS]
stdout: label 1

stdin: Quick check: does SAGGSAGGSAGPDDFVTLTETIVEEIDPNLAELPPEVAERLVKEGVKVIEKVLTKVAPPSLLSAGGSAGGSA [r18_127_JUSTAS] have folding stability dG unfold greater than or equal to 1 kcal/mol?
stdout: label 0

stdin: For this sequence, is measured folding stability dG unfold 1 kcal/mol or higher? SAGGEEEAVEKPFYQLPEKKPLKTVPMSREEALALARENPDLGILYAEEDGKLWKVDAETGTIEPLGSAGGS [r16_214_JUSTAS]
stdout: label 1

stdin: Form field: folding stability dG unfold at least 1 kcal/mol? Entry: SIERPGGEPVTLTVTVERPPGVRTTRTFTTPASELEARRGRDVTDEEIIAAVKEELAAAGDRALAVTVDRTS [r1_338_JUSTAS]
stdout: label 0

====

assay-summary: folding stability dG unfold from chymotrypsin proteolysis; higher = more stable
folding stability dG unfold by entry:
Give just the number in kcal/mol; leave the unit off.

# annotated cases, reported folding stability dG unfold shown
item-sequence	folding stability dG unfold, kcal/mol
SMGSITITLPATPEELRELLREKGISPELAPSWEEVKEALKKAFPKNVTVTINPKSPVSEEAAKAAREGSSA [r9_74_JUSTAS]	1.45
SAGGSAGGMTKTEVTVTVEKVPDGTYVVKTTKTTTTTNPDGTLTSSTTTTTKTVTPEELAAVLASAGGSAGG [r6_974_JUSTAS]	2.86
SVPVAPDKTYEIENIEEGNYLIKGLTLTPLPDGSVKIDKDIEPIEIPPKPPPLKYDPVKGGFIKPNDPLLSA [r9_603_JUSTAS]	0.592
SAGGSAGGSKKKITVKIEEVKLNPETGKLVLVKIKLPDGKELVFKTPEEIENLPGAEFEVYELSAGGSAGGS [r20_192_TrROS_Hall]	1.47
SAGGSAGGMLLVRIKVRRPDGSEETIVLEFESEEELKAAIEELLPPGWEVVEIELVPLGEELPESAGGSAGG [r6_872_TrROS_Hall]	4.4
SAGGSAGGPNIEIMSMFKHPNGTIVIFIRTPEGRYIVIKIPPPGNIKIVGVYPLPPGDPLLERLSAGGSAGG [r6_715_TrROS]	3.14

stdin: Need folding stability dG unfold, item SAGGSAGGSADEPETTTTTTTTTTTKKPAPPAPPKTITLDVEVNGKTLRLTFTSKEALDALSAGGSAGGSAG [r3_426_TrROS_Hall]
stdout: 0.945

stdin: Requested read-out: folding stability dG unfold. Entry: SAGGFGIKIDEFDPDGEFRISIYDPDTWQPIAEFRIKIKPVPPPPPVEKRPYKDDDGEPKTVTHPDDQSAGG [r13_9_TrROS]
stdout: 1.73

stdin: Item SMEEKEEVLSVEVDPVGEVVVTRTLVKKSAVDPTNPNNPVPLSLEEIVEPVPLPPPVPLPVPGNPRFEAASA [r9_357_JUSTAS] has what recorded folding stability dG unfold?
stdout: 0.77

stdin: Returns the measured folding stability dG unfold for the input sequence. Input: SAGGSGKVIGFSFEVETPEEAEGLFKENRPDLDVKILEVKPEEGYVRLVAVDPDGKPHVFVVPIVGSAGGSA [r2_201_TrMRF]
stdout: 1.34

stdin: Need folding stability dG unfold of SAGGSAGGSEEILKALGVEPGDEVEIEMTPEELEELLALPGVEPVRVEERPDGRLRVRIRILPSAGGSAGGS [r12_750_TrROS_Hall] , thanks.
stdout: 2.93

stdin: // query folding stability dG unfold value for entry SAGGSAGGSAGLIVTHPDGGVTTLRLTLTFTFEGPVGPPKTVTFEFTLTVAPNGTEVTLESAGGSAGGSAGG [r11_271_TrMRF]
stdout: 5.11
